# Tested on: Bovine cardiac myofibrils
# Measurement protocol: In vitro model of dose-dependent myofibril ATPase modulation (AC1.4, pyruvate kinase/lactate dehydrogenase-coupled ATPase assay at pCa25)
# Type: biochemical
# Condition: concentration at which ATPase activity was 1.4-fold higher than the bottom of the dose curve, mean of a minimum of two independent tests
Measurement name: AC1.4

INSERT INTO results (compound, measurement_name, test_value) VALUES
  ('N#CC1CN(S(=O)(=O)c2cccc(C(=O)N3c4ccccc4CC3C(=O)NCc3ccc(C(F)(F)F)cc3)c2)C1 (racemic)', 'AC1.4', '2.157 µM'),
  ('CN(C)C(=O)C1CN(S(=O)(=O)N2CCC[C@H](C(=O)N3CCC[C@@H]3C(=O)NCc3ccc(C(F)(F)F)cc3)C2)C1', 'AC1.4', '5.9215 µM'),
  ('CS(=O)(=O)N1CCN[C@H](C(=O)N2[C@@H](C(=O)N[C@@H](c3cc(F)c(Cl)cc3F)C3CC3)C[C@H]3C[C@H]32)C1', 'AC1.4', '6.475 µM'),
  ('C[C@@H](NC(=O)[C@H]1CCCN1C(=O)c1cccc(S(=O)(=O)N2CC(C)(O)C2)c1)c1ccc(C(F)(F)F)cc1', 'AC1.4', '1.961 µM'),
  ('CS(=O)(=O)c1cccc(C(=O)N2[C@@H](C(=O)N[C@@H](c3ccc(F)cc3F)C3COC3)C[C@H]3C[C@H]32)c1', 'AC1.4', '6.701 µM'),
  ('C[C@H](C(=O)N[C@H](C)c1ccc(Cl)cc1F)N(C)C(=O)[C@H]1CCCN(S(=O)(=O)N2CC(C#N)C2)C1', 'AC1.4', '0.8619 µM');

---

# Tested on: Bovine cardiac myofibrils
# Measurement protocol: In vitro model of dose-dependent myofibril ATPase modulation (AC1.4, pyruvate kinase/lactate dehydrogenase-coupled ATPase assay at pCa25)
# Format: biochemical
# Condition: concentration at which ATPase activity was 1.4-fold higher than the bottom of the dose curve, mean of a minimum of two independent tests
Measurement name: log10 of AC1.4 (log10 of the value in µM)

INSERT INTO assay_data (compound, measurement_name, test_value) VALUES
  ('O=C(NCc1ccc(C(F)(F)F)cc1)[C@H]1CCCN1C(=O)[C@H]1CCCN(S(=O)(=O)N2CC(n3ccnn3)C2)C1 [Example 203]', 'log10 of AC1.4', -0.37),
  ('C[C@@H](NC(=O)[C@H]1CCCN1C(=O)[C@@H]1CN(S(=O)(=O)N2CC(C#N)C2)CCN1)c1ccc(C(F)(F)F)cc1F [Example 144]', 'log10 of AC1.4', -0.61),
  ('O=C(N[C@@H](c1ccc(C(F)(F)F)cc1F)C1CC1)[C@H]1CCCCN1C(=O)c1cccc(C(O)C(F)(F)F)c1 (some centres unmarked) [Example 347]', 'log10 of AC1.4', 0.01),
  ('CS(=O)(=O)c1cccc(C(=O)N2[C@@H](C(=O)N[C@@H](c3ccc(C(F)(F)F)c(F)c3)C3CC3)C[C@H]3C[C@H]32)c1 [Example 307]', 'log10 of AC1.4', -0.10),
  ('O=C(NCc1ccc(C(F)(F)F)cc1F)[C@H]1CCCN1C(=O)[C@H]1CCCN(S(=O)(=O)N2CC(O)C2)C1 [Example 610]', 'log10 of AC1.4', 0.58),
  ('N#Cc1ccc(CNC(=O)[C@H]2CCCN2C(=O)[C@H]2CCCN(S(=O)(=O)N3CC(C#N)C3)C2)cc1 [Example 551]', 'log10 of AC1.4', 0.45),
  ('N#CC1CN(S(=O)(=O)N2CCC[C@H](C(=O)N3CCC[C@@H]3C(=O)NCc3cc(Cl)cc(Cl)c3)C2)C1 [Example 390]', 'log10 of AC1.4', 0.13),
  ('CC(C)(C)Nc1ccc(S(C)(=O)=O)cc1C(=O)N1[C@@H](C(=O)N[C@@H](c2ccc(C(F)(F)F)cc2F)C2CC2)C[C@H]2C[C@H]21 [Example 101]', 'log10 of AC1.4', -0.81),
  ('CC(O)C(NC(=O)[C@H]1C[C@H]2C[C@H]2N1C(=O)c1cccc(S(C)(=O)=O)c1)c1ccc(C(F)(F)F)cc1F (some centres unmarked) [Example 601]', 'log10 of AC1.4', 0.52),
  ('CS(=O)(=O)c1ccnc(C(=O)N2CCCC[C@@H]2C(=O)N[C@@H](c2cc(F)c(Cl)cc2F)C2CC2)c1 [Example 159]', 'log10 of AC1.4', -0.56),
  ('N#CC1CN(S(=O)(=O)N2CCC[C@H](C(=O)N3CCC[C@@H]3C(=O)NC3CCOc4ccccc43)C2)C1 (some centres unmarked) [Example 502]', 'log10 of AC1.4', 0.37),
  ('CC(O)C(NC(=O)[C@H]1C[C@H]2C[C@H]2N1C(=O)c1cccc(S(C)(=O)=O)c1)c1cc(F)c(Cl)cc1F (some centres unmarked) [Example 757]', 'log10 of AC1.4', 0.88),
  ('N#CC1CN(S(=O)(=O)N2CCC[C@H](C(=O)N3CCC[C@@H]3C(=O)NCc3cccc(Cl)c3Cl)C2)C1 [Example 206]', 'log10 of AC1.4', -0.36),
  ('CS(=O)(=O)c1cccc(C(=O)N2[C@@H](C(=O)N[C@@H](c3ccc(C(F)(F)F)cc3)C3CC3)C[C@H]3C[C@H]32)c1 [Example 596]', 'log10 of AC1.4', 0.47),
  ('CS(=O)(=O)c1cccc(C(=O)N2CC(F)(F)C[C@@H]2C(=O)N[C@@H](c2ccc(C(F)(F)F)cc2F)C2CC2)c1 [Example 320]', 'log10 of AC1.4', -0.06),
  ('Cc1cccc(C(=O)N2CCC[C@@H]2C(=O)N[C@@H](c2ccc(C(F)(F)F)cc2F)C2CC2)c1 [Example 715]', 'log10 of AC1.4', 0.78),
  ('CS(=O)(=O)c1cccc(C(=O)N2CCSCC2C(=O)N[C@@H](c2ccc(C(F)(F)F)cc2F)C2CC2)c1 (some centres unmarked) [Example 552]', 'log10 of AC1.4', 0.46),
  ('N#CC1CN(S(=O)(=O)N2CCN[C@H](C(=O)N3CCC[C@@H]3C(=O)NCc3ccc(C(F)(F)F)cc3)C2)C1 [Example 239]', 'log10 of AC1.4', -0.25),
  ('CC(C)c1cc(C(=O)N2[C@@H](C(=O)N[C@@H](c3cc(F)c(Cl)cc3F)C3COC3)C[C@H]3C[C@H]32)ccn1 [Example 504]', 'log10 of AC1.4', 0.37),
  ('Cc1ccc(C(=O)N2[C@@H](C(=O)N[C@@H](c3cc(F)c(Cl)cc3F)C3COC3)C[C@H]3C[C@H]32)cc1S(C)(=O)=O [Example 472]', 'log10 of AC1.4', 0.26),
  ('NS(=O)(=O)c1ccc(F)c(C(=O)N2CCC[C@@H]2C(=O)N[C@@H](c2ccc(C(F)(F)F)cc2F)C2CC2)c1 [Example 566]', 'log10 of AC1.4', 0.49),
  ('CN(C)S(=O)(=O)c1cccc(C(=O)N2CCC[C@@H]2C(=O)N[C@H](c2ccc(C(F)(F)F)cc2F)C2CC2)c1 [Example 802]', 'log10 of AC1.4', 0.98),
  ('CCCCCOC1CN(S(=O)(=O)N2CCC[C@H](C(=O)N3CCC[C@@H]3C(=O)NCc3ccc(C(F)(F)F)cc3)C2)C1 [Example 536]', 'log10 of AC1.4', 0.43),
  ('N#CC1CN(S(=O)(=O)c2cccc(C(=O)N3CCC[C@@H]3C(=O)N[C@H](CO)c3ccc(C(F)(F)F)cc3)c2)C1 [Example 31]', 'log10 of AC1.4', -1.48),
  ('N#CC1CN(S(=O)(=O)c2cccc(C(=O)N3CCC[C@@H]3C(=O)N[C@H](CO)c3cccc(C(F)(F)F)c3)c2)C1 [Example 158]', 'log10 of AC1.4', -0.56),
  ('CC(=O)N1CC(NS(=O)(=O)N2CCC[C@H](C(=O)N3CCC[C@@H]3C(=O)NCc3ccc(C(F)(F)F)cc3)C2)C1 [Example 806]', 'log10 of AC1.4', 1.00);

---

# System: Bovine cardiac myofibrils
# Measurement protocol: In vitro model of dose-dependent myofibril ATPase modulation (AC1.4, pyruvate kinase/lactate dehydrogenase-coupled ATPase assay at pCa25)
# Assay type: biochemical
# Condition: concentration at which ATPase activity was 1.4-fold higher than the bottom of the dose curve, mean of a minimum of two independent tests
Reported AC1.4 is given for each of the following compounds.
Measurement name: AC1.4 (µM)

INSERT INTO assay_data (mol_smiles, test_value) VALUES
  ('C#CCN(C)S(=O)(=O)c1cccc(C(=O)N2CCC[C@@H]2C(=O)N[C@H](C)c2ccc(C(F)(F)F)cc2)c1', 7.3175),
  ('CC1(O)CN(S(=O)(=O)N2CCC[C@H](C(=O)N3C[C@@H](F)C[C@@H]3C(=O)NCc3ccc(C(F)(F)F)cc3)C2)C1', 5.096),
  ('Cc1cc(F)ccc1CNC(=O)[C@H]1CCCN1C(=O)[C@H]1CCCN(S(=O)(=O)N2CC(C#N)C2)C1', 1.268),
  ('O=C(NCc1ccc(C(F)(F)F)cc1)[C@H]1CC2(CC2)CN1C(=O)c1cccc(S(=O)(=O)N2CC3(CC3)C2)c1', 0.841),
  ('CCNc1cnc(C)cc1C(=O)N1[C@@H](C(=O)N[C@@H](c2ccc(C(F)(F)F)cc2F)C2CC2)C[C@H]2C[C@H]21', 1.2725),
  ('Cc1cc(CNC(=O)[C@H]2CCCN2C(=O)[C@H]2CCCN(S(=O)(=O)N3CC(C#N)C3)C2)cc(C(F)(F)F)c1', 1.0947),
  ('N#CC1CN(S(=O)(=O)N2CCC[C@H](C(=O)N3CCC[C@@H]3C(=O)NCc3ccc(Cl)cc3)C2)C1', 0.2785);
